Ref: patent US7329652B2

- test target: JAK3 (Homo sapiens, UniProt P52333)
- Sequence (P52333 whole entry, species assumed): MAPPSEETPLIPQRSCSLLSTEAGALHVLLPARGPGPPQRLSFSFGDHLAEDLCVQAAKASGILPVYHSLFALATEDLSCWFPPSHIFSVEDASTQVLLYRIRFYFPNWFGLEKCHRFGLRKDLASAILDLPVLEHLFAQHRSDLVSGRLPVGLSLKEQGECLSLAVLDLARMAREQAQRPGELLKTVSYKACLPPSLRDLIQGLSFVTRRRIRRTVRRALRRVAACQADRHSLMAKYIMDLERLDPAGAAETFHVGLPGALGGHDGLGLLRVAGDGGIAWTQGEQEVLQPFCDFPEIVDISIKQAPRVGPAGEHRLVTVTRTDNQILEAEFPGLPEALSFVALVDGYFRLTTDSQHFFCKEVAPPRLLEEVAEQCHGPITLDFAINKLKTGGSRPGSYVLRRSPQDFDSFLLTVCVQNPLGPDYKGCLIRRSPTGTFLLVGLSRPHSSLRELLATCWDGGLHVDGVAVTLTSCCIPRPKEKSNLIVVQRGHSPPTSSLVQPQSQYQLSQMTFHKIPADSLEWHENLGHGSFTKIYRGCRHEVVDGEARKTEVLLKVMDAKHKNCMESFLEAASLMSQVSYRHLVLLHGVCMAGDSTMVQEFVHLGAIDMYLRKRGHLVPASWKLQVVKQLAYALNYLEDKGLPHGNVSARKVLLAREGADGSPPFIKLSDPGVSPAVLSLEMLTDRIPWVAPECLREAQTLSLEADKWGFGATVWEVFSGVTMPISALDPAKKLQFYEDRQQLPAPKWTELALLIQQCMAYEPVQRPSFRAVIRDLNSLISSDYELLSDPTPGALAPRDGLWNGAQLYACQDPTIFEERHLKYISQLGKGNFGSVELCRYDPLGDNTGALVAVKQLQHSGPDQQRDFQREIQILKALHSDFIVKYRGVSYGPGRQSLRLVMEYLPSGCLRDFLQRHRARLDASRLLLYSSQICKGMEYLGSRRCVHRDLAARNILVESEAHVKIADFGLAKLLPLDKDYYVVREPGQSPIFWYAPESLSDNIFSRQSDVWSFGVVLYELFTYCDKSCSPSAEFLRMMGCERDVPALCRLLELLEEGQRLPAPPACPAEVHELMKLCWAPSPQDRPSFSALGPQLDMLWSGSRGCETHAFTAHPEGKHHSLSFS
- experimental details: JAK3 inhibition assay (radiometric 33P filter assay)
- Format: biochemical
- test conditions: 1 μM poly(Glu)4Tyr, 5 μM ATP, 1 nM JAK3, 25° C.; read-out: JAK3 inhibition data (Ki)

>  <record smiles>
Cc1ccc(OC(=O)Nc2ccc(Nc3nc(N)n(-c4cc(N5CCCN(C(=O)CC#N)CC5)ncn4)n3)cc2)cc1

>  <test target>
JAK3 (Homo sapiens, UniProt P52333)

>  <Ki>
< 50 nM

$$$$
>  <record smiles>
CC(=O)Nc1ccc(Nc2nc(N)n(-c3cc(N4CCCN(C(C)=O)CC4)ncn3)n2)cc1

>  <test target>
JAK3 (Homo sapiens, UniProt P52333)

>  <Ki>
< 50 nM

$$$$
>  <record smiles>
CCCOC(=O)N1CCN(c2ccc(Nc3nc(N)n(-c4ccnc(N5CCCN(S(C)(=O)=O)CC5)c4)n3)cc2)CC1

>  <test target>
JAK3 (Homo sapiens, UniProt P52333)

>  <Ki>
50 to 500 nM

$$$$
>  <record smiles>
CC(=O)N1CCCN(c2cc(-n3nc(Nc4ccc(N5CCN(C(=O)CC(C)C)CC5)cc4)nc3N)ncn2)CC1

>  <test target>
JAK3 (Homo sapiens, UniProt P52333)

>  <Ki>
< 50 nM

$$$$
>  <record smiles>
CCS(=O)(=O)N1CCCN(c2cc(-n3nc(Nc4ccc(N5CCN(C(=O)OC(C)C)CC5)cc4)nc3N)ccn2)CC1

>  <test target>
JAK3 (Homo sapiens, UniProt P52333)

>  <Ki>
50 to 500 nM

$$$$
